- studySystem: T1, LTKTG-EGFL (human LTK amino acids 63-420) (human, UniProt P29376 63-420)
- T1 construct: Fc-His6 tag removed by caspase 3; also called LTK (in BLI, SEC-MALLS and ITC)
- T1 sequence: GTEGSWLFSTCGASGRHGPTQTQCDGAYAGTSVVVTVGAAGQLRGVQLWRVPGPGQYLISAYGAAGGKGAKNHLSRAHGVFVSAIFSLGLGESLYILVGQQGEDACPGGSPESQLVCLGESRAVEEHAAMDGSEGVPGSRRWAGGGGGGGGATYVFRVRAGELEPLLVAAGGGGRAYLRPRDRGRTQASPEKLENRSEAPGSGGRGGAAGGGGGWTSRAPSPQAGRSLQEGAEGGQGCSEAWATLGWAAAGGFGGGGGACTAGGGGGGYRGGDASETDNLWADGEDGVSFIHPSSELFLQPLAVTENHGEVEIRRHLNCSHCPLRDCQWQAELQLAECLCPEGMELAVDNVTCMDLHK
- assaySummary: BLI, biotinylated ALKAL2 on streptavidin biosensors, LTKTG-EGFL in solution 300 nM to 11 nM, 2:1 binding model, component 2
- Text: FIGS. 10A and 10B Representative response curves as measure by biolayer-interferometry (BLI) for the interaction of WT ALKAL1 and ALKAL1 mutants (containing charge-reversal mutations of residues involved in site 1) (FIG. 10A) and WT ALKAL2 and ALKAL2 mutants (FIG. 10B) with ALK_TG-EGFL and LTK_TG-EGFL. For WT ALKALs LTK curves were fitted with a 2:1 binding model (red) while for ALK a 1:1 model was used. […]
parameterMeasured: pKd
Please note pKd is a logarithmic value: minus log10 of concentration in mol/L. Answer with that number alone.

[in] # input binder: ALKAL2 (truncated, residues 78-152) (ligand, human, UniProt Q6UX46 78-152, looked up, range 78-152; Tag-free in ITC, SEC-MALLS, crystals and Ba/F3 assays; also called ALKAL2^WT; WT ALKAL2) PSPEQRVEIVPRDLRMKDKFLKHLTGPLYFSPKCSKHFHRLYHNTRDCTIPAYYKRCARLLTRLAVSPVCMEDKQ ; wanted: its pKd
[out] 6.46
